target: COX-2 (Homo sapiens, UniProt P35354); experiment: biochemical
Sequence (P35354 18-604): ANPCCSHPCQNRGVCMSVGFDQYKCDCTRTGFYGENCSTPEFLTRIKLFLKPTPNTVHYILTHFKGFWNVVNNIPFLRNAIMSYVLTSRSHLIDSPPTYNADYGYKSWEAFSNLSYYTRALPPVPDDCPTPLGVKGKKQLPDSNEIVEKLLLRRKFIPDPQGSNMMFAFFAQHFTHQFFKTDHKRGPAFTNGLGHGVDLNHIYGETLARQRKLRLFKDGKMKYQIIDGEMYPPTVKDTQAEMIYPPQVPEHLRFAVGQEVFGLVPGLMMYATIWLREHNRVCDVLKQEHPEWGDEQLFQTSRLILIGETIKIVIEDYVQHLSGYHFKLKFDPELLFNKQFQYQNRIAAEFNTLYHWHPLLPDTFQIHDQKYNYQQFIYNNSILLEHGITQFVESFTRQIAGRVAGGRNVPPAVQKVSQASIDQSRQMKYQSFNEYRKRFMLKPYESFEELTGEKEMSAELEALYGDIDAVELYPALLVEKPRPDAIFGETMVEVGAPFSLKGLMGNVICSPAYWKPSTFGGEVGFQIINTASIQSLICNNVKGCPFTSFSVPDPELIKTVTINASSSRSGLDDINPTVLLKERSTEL
recorded_metric: IC50 (nM)
State the answer as a number, implicitly in nM.

Record request: IC50 value, item N[C@@H](CSC1(c2ccccc2)c2ccccc2Oc2ccccc21)C(=O)O
130

Record request: IC50 value, item OC1(Cc2ccccc2)c2ccccc2Sc2ccccc21
7.2

Record request: IC50 value, item N[C@@H](CSC1(c2ccccc2)c2ccccc2Sc2ccccc21)C(=O)O
4.37

Measured values drawn from paper PMC10586285 for this set.
